# target_under_test: PKCβ2 (Homo sapiens, UniProt P05771)
# Sequence (P05771 1-673 isoform P05771-2): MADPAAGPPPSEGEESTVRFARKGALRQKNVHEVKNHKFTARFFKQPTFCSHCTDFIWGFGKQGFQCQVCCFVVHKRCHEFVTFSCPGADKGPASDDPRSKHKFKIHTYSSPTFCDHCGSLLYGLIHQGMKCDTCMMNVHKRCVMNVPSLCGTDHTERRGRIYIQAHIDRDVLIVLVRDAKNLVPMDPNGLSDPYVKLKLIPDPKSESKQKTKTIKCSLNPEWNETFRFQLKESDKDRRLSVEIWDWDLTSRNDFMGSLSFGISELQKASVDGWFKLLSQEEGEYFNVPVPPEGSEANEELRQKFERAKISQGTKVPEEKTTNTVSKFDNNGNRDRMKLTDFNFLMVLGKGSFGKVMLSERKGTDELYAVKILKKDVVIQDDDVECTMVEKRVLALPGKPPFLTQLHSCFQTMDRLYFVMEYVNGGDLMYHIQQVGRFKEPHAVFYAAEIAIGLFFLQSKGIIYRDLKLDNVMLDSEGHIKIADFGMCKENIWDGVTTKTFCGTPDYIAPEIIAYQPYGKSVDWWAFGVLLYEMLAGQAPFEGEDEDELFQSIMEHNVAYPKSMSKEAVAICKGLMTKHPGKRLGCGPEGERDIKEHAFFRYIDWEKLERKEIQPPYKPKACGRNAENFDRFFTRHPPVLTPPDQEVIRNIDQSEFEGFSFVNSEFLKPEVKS
# measurement_notes: Inhibition of various kinases (% inhibition)
# Format: biochemical
# measurement_parameters: 1 μM
# From the text: Additional examples of selectivity are illustrated in Table 4.
reported_property: inhibition at 1 µM

smiles_representation: COc1cccc2c(C3=C(c4cn(C)c5cc(I)c(F)cc45)C(=O)NC3=O)coc12
reported_property: inhibition at 1 µM
value_reported: 2%
//
smiles_representation: O=C1NC(=O)C(c2cn(CCCO)c3ccc(Br)cc23)=C1c1coc2ccccc12
reported_property: inhibition at 1 µM
value_reported: 62%
//
smiles_representation: C#CCOc1ccc2c(C3=C(c4cn(C)c5ccc(Br)cc45)C(=O)NC3=O)coc2c1
reported_property: inhibition at 1 µM
value_reported: 3%
//
smiles_representation: C#Cc1ccc2c(c1)c(C1=C(c3coc4ccccc34)C(=O)NC1=O)cn2C
reported_property: inhibition at 1 µM
value_reported: 24%

====

Measured IC50 by item
# target_under_test: CDK-5/P25 (Homo sapiens)
# Sequence (Q00535 whole entry, species assumed): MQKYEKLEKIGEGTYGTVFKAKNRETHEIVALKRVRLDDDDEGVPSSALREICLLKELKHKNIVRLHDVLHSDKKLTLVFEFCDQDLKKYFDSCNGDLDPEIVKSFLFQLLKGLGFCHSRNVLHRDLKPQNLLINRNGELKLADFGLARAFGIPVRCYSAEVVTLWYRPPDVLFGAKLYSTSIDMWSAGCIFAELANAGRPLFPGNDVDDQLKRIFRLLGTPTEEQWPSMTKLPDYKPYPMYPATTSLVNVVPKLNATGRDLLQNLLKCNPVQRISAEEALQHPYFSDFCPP
# Sequence (Q15078 99-307 partner limits assumed, species assumed): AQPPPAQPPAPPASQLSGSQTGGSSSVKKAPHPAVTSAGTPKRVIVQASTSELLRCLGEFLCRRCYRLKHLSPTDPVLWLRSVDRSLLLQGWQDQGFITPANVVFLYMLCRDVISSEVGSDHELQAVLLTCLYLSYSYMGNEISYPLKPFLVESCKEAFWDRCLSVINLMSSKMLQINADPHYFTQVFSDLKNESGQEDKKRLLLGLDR
# measurement_notes: CDK panel (Reaction Biology)
# Assay type: biochemical
# measurement_parameters: tested at Reaction Biology, Inc.
reported_property: IC50

compound: COCc1cccc2c(C3=C(c4coc5ccccc45)C(=O)NC3=O)cn(C)c12 [Compound 52]
reported_property: IC50
value_reported: 12.9 µM

compound: COc1cccc2c(C3=C(c4cn(C)c5cc(Cl)c(F)cc45)C(=O)NC3=O)coc12 [Compound 15]
reported_property: IC50
value_reported: 108 µM

====

# target_under_test: Axl (Homo sapiens)
# Sequence (P30530 26-894): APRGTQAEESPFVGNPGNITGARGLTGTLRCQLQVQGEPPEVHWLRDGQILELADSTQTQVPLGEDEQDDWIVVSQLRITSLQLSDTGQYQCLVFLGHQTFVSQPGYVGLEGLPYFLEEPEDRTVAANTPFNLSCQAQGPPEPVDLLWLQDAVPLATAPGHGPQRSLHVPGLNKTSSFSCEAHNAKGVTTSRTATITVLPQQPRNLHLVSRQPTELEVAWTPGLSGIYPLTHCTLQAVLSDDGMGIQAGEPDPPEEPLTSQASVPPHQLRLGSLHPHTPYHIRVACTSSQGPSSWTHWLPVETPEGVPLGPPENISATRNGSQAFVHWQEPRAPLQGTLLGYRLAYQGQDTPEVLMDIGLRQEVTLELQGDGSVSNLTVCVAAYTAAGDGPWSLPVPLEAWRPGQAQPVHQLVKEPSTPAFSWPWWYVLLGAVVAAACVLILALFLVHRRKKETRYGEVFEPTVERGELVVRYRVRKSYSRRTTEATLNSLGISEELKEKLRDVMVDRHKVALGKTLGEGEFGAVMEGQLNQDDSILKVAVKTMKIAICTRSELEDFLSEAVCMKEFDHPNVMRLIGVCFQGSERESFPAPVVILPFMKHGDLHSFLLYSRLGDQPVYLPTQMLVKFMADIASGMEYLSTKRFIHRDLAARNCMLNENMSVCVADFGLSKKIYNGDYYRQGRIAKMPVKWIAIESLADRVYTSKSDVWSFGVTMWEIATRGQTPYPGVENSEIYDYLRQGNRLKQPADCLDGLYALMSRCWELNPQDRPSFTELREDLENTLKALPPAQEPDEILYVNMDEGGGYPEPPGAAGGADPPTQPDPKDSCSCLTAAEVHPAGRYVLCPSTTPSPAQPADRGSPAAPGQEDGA
# measurement_notes: Kinase panel (Novartis)
# Assay type: biochemical
Quick list: IC50 per entry.
reported_property: IC50

compound: Cn1cc(C2=C(c3coc4ccccc34)C(=O)NC2=O)c2cc(Br)ccc21 [Compound 19]
reported_property: IC50
value_reported: > 10 µM
//
compound: Cn1cc(C2=C(c3coc4ccccc34)C(=O)NC2=O)c2ccc(O)cc21 [Compound 45]
reported_property: IC50
value_reported: > 10 µM
